Examples of compounds with documented log10 IC50 follow.
- SYSTEM_UNDER_TEST: D-amino-acid oxidase (Homo sapiens)
- Sequence (P14920 whole entry): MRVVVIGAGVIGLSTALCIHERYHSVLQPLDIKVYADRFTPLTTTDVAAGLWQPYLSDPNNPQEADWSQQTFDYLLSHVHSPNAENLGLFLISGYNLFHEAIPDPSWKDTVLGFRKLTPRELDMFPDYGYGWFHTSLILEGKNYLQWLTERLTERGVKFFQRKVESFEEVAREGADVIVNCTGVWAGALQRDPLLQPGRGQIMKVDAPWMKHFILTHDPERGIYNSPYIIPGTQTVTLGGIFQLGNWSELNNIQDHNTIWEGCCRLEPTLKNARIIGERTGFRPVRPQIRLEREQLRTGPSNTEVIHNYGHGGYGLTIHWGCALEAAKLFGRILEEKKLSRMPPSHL
- PROTOCOL: Inhibition of human recombinant DAO expressed in Escherichia coli BL21(DE3) using D-Asp and D-Ala assessed as 2-oxo acid production after 10 mins by colorimetric assay
QUANTITY_MEASURED: log10 IC50 (log10 of the value in µM)

[[record]]
substance_smiles = "NC(=O)c1csc(C(=O)O)c1"
quantity_measured = "log10 IC50"
endpoint_value = 2.54

[[record]]
substance_smiles = "O=C(O)c1cccnc1"
quantity_measured = "log10 IC50"
endpoint_value = 3.05

[[record]]
substance_smiles = "O=C(O)c1ncccc1O"
quantity_measured = "log10 IC50"
endpoint_value = 3.39

[[record]]
substance_smiles = "Cc1cncc(C(=O)O)c1"
quantity_measured = "log10 IC50"
endpoint_value = 3.18

[[record]]
substance_smiles = "O=C(O)c1ccccc1"
quantity_measured = "log10 IC50"
endpoint_value = 2.13

[[record]]
substance_smiles = "Nc1cccc(C(=O)O)c1"
quantity_measured = "log10 IC50"
endpoint_value = 2.59

[[record]]
substance_smiles = "Cc1cc(C(=O)O)c(N)s1"
quantity_measured = "log10 IC50"
endpoint_value = 3.16

[[record]]
substance_smiles = "O=C(O)c1cc(Cl)ccc1O"
quantity_measured = "log10 IC50"
endpoint_value = 3.56

[[record]]
substance_smiles = "O=C(O)c1cc(F)ccc1O"
quantity_measured = "log10 IC50"
endpoint_value = 3.02

[[record]]
substance_smiles = "Nc1ccc(Cl)cc1C(=O)O"
quantity_measured = "log10 IC50"
endpoint_value = 3.59

[[record]]
substance_smiles = "O=C(O)c1cc2ccccc2n1O"
quantity_measured = "log10 IC50"
endpoint_value = 0.13

